target_under_test: T1, recombinant human fibronectin fragment FN7B8 (human, UniProt P02751 1173-1448)
T1 construct: no separate number is printed for the protein, so the entry may be a nucleic acid
assay_info: SPR (BIAcore X), FN7B8 amine-coupled (about 500 RU), mutein as analyte
test_readout: koff (s⁻¹)
Report the value in s⁻¹ with no unit label.

Specify reported koff for the binder shown: Lcn2 mutein N7A (designed binder) QDSTSDLIPAPPLSKVPLQQNFQDNQFHGKWYVVGKAGNHDLREDKDPRKMQATIYELKEDKSYNVTNVRFVHKKCNYRIWTFVPGSQPGEFTLGNIKSWPGLTSWLVRVVSTNYNQHAMVFFKRVYQNRELFEITLYGRTKELTNELKENFIRFSKSLGLPENHIVFPVPIDQCIDG
0.026
